Recorded values, source patent US20260070987A1.

List of pKd values.
target: equine FcRn (large alpha subunit p51) / equine beta-2-microglobulin complex, biotinylated (equine) (UniProt P30441); test: SPR (Biacore), pH 6
pKd: −log10 of the molar value.

>  <binder>
equine IgG4 Y436D (antibody, part only; not given: variable domains, not shown: another chain or arm of the molecule) constant: ASTTAPKVFPLASHSAATSGSTVALGCLVSSYFPEPVTVSWNSGALTSGVHTFPSVLQSSGLYSLSSMVTVPASSLKSQTYICNVAHPASSTKVDKKIVIKECNGGCPAECLQVGPSVFIFPPKPKDVLMISRTPTVTCVVVDVGHDFPDVQFNWYVDGVETHTATTEPKQEQFNSTYRVVSVLPIQHKDWLSGKEFKCKVNNKALPAPVERTISKPTGQPREPQVYVLAPHRDELSKNKVSVTCLVKDFYPTDIDIEWKSNGQPEPETKYSTTPAQLDSDGSYFLYSKLTVETNRWQQGTTFTCAVMHEALHNHDTEKSVSKSPGK

>  <pKd>
7.59

$$$$
>  <binder>
equine IgG1 M428Y (antibody, part only; not given: variable domains, not shown: another chain or arm of the molecule) constant: ASTTAPKVFALAPGCGTTSDSTVALGCLVSGYFPEPVKVSWNSGSLTSGVHTFPSVLQSSGFYSLSSMVTVPASTWTSETYICNVVHAASNFKVDKRIEPIPDNHQKVCDMSKCPKCPAPELLGGPSVFIFPPNPKDTLMITRTPEVTCVVVDVSQENPDVKFNWYMDGVEVRTATTRPKEEQFNSTYRVVSVLRIQHQDWLSGKEFKCKVNNQALPQPIERTITKTKGRSQEPQVYVLAPHPDELSKSKVSVTCLVKDFYPPEINIEWQSNGQPELETKYSTTQAQQDSDGSYFLYSKLSVDRNRWQQGTTFTCGVYHEALHNHYTQKNVSKNPGK

>  <pKd>
7.77

$$$$
>  <binder>
equine IgG1 Y436G (antibody, part only; not given: variable domains, not shown: another chain or arm of the molecule) constant: ASTTAPKVFALAPGCGTTSDSTVALGCLVSGYFPEPVKVSWNSGSLTSGVHTFPSVLQSSGFYSLSSMVTVPASTWTSETYICNVVHAASNFKVDKRIEPIPDNHQKVCDMSKCPKCPAPELLGGPSVFIFPPNPKDTLMITRTPEVTCVVVDVSQENPDVKFNWYMDGVEVRTATTRPKEEQFNSTYRVVSVLRIQHQDWLSGKEFKCKVNNQALPQPIERTITKTKGRSQEPQVYVLAPHPDELSKSKVSVTCLVKDFYPPEINIEWQSNGQPELETKYSTTQAQQDSDGSYFLYSKLSVDRNRWQQGTTFTCGVMHEALHNHGTQKNVSKNPGK

>  <pKd>
7.66

$$$$
>  <binder>
equine IgG1 G426E (antibody, part only; not given: Variable domains, not shown: another chain or arm of the molecule) constant: ASTTAPKVFALAPGCGTTSDSTVALGCLVSGYFPEPVKVSWNSGSLTSGVHTFPSVLQSSGFYSLSSMVTVPASTWTSETYICNVVHAASNFKVDKRIEPIPDNHQKVCDMSKCPKCPAPELLGGPSVFIFPPNPKDTLMITRTPEVTCVVVDVSQENPDVKFNWYMDGVEVRTATTRPKEEQFNSTYRVVSVLRIQHQDWLSGKEFKCKVNNQALPQPIERTITKTKGRSQEPQVYVLAPHPDELSKSKVSVTCLVKDFYPPEINIEWQSNGQPELETKYSTTQAQQDSDGSYFLYSKLSVDRNRWQQGTTFTCEVMHEALHNHYTQKNVSKNPGK

>  <pKd>
7.62

$$$$
